system: UACC-62 melanoma; assay: NCI tumour cell line growth inhibition, 48 h; in the data active = GI50 below about 0.43 µM; inactive = the rest
A correct response names exactly one class from active, inactive

compound: c1ccc(-c2nnc(Nc3ccc4c(c3)OCCO4)o2)c(NCc2ccncc2)c1
class name: active

compound: Nc1c(C(=O)c2cccc(CCC3(O)CCCC3)c2)cnn1-c1ccc(F)cc1
class name: inactive

compound: CC#Cc1cc2c(cc1O)CC[C@@H]1[C@@H]2CC[C@]2(C)[C@@H](O)CC[C@@H]12
class name: inactive

Asked: # lookup: test call for `COc1ccc(OC)c(C#Cc2ccc(OC)c(C(=O)NCCc3ccc(F)cc3)c2)c1`
Given back: inactive

Asked: In this assay, the call recorded for `Cc1ccc(N=Nc2c(N)nn(-c3ccccc3)c2N)cc1` was what?
Given back: inactive

Asked: Dear all, I need the recorded test outcome for `ICCC(c1ccccc1)(c1ccccc1)c1ccccc1` , thank you.
Given back: inactive

Asked: Name the outcome recorded for `C=CC(=O)N1CCC([C@@H]2CCNc3c(C(N)=O)c(-c4ccc(Oc5ccccc5)cc4)nn32)CC1` in the assay.
Given back: inactive

Asked: // param item: `C/C1=C\C/C=C(\C)[C@H]2CC(CC/C(C)=C/CC1)[C@@](C)(CO)O2` ; yields the recorded call
Given back: inactive

Asked: Please share the test call associated with `O=c1oc2ccc(Cl)cc2c(=O)n1-c1cc(C(F)(F)F)cc(C(F)(F)F)c1` .
Given back: active

Asked: Call for entry `CC1(C)N=C(N)N=C(N)N1c1cccc(CCCCc2ccccc2)c1` :
Given back: active

Asked: Please state the recorded outcome for this compound: `CCN(CC)CCCOc1cc(O)c2c(=O)cc(-c3ccccc3)oc2c1`
Given back: inactive

Asked: Dear all, I need the recorded test outcome for O=C(OCC1OC(OC(=O)c2cc(O)c(O)c(OC(=O)c3cc(O)c(O)c(O)c3)c2)C(OC(=O)c2cc(O)c(O)c(OC(=O)c3cc(O)c(O)c(O)c3)c2)C(OC(=O)c2cc(O)c(O)c(OC(=O)c3cc(O)c(O)c(O)c3)c2)C1OC(=O)c1cc(O)c(O)c(OC(=O)c2cc(O)c(O)c(O)c2)c1)c1cc(O)c(O)c(OC(=O)c2cc(O)c(O)c(O)c2)c1 (stereo unspecified) , thank you.
Given back: inactive

Asked: # fetch the recorded call for `COc1cc(Cn2ccc3c2-c2oncc2CC3)cc(OC)c1` here
Given back: inactive

Asked: Please indicate how the test categorized `C/C(=N\NC(=O)c1ccccc1O)c1cccc(/C(C)=N/NC(=O)c2ccccc2O)n1` .
Given back: inactive

Attribution: PubChem BioAssay (NCI)
